# System: XF 498 CNS
# procedureDetails: NCI tumour cell line growth inhibition, 48 h
I'd be grateful if you could share measured TGI for these entries.

O=c1oc2cc(O)ccc2c2[nH]c3cc(O)ccc3c12 = 73.6 µM
O=C1c2c(O)cccc2C(C(=O)CCCCCC(=O)C2c3cccc(O)c3C(=O)c3c(O)cccc32)c2cccc(O)c21 = 1.2 µM
CCCCn1c(-c2ccccc2)cs/c1=N\N=C1C=C(C(C)(C)C)C(=O)C(C(C)(C)C)=C1 = > 100 µM

For the 6 compounds below, give their TGI values.
1. O=S(=O)(C1=CC(S(=O)(=O)c2ccccc2)COC1)c1ccccc1 (centres undefined)
2. CC(C)N(C(=O)C12C3C4C1C1C2C3C41C(=O)C(C)(C)C)C(C)C (centres undefined)
3. O=C(NN1C(=O)C(Cl)C1c1cccc(O)c1)c1ccccc1O (centres undefined)
4. COc1cccc(/C=N/[N-]C(=O)c2ccncc2)c1[O-].[Mn+2].[OH3+]
5. COc1ccc(CN(CCN(C)C)c2ccccn2)cc1 (tested in a mixture with another compound)
6. C[C@H]1CCC/C=C/C2CC(OC(=O)CN(C)C)CC2C(OC(=O)CN(C)C)/C=C/C(=O)O1 (some centres undefined)

Output:
1. > 100 µM
2. > 100 µM
3. > 100 µM
4. 86.9 µM
5. > 100 µM
6. 1.42 µM

---

# Tested on: UACC-257 melanoma
# procedureDetails: NCI tumour cell line growth inhibition, 48 h
parameter: TGI (µM)
Answers are plain numbers, in µM.

COc1cc(/C=C/C(=O)c2cccc3ccccc23)cc(OC)c1OC = 19.7

Task: Reported TGI for CCOC(=O)c1oc2c(OC)ccc3c2c1CCC3 : what is it?
Output: 10.9

---

# Tested on: OVCAR-4 ovarian
# procedureDetails: NCI tumour cell line growth inhibition, 48 h
parameter: TGI (µM)
One number for each entry, in µM.

C=C1CC[C@@]2(C)[C@@H]([C@@H]1C)[C@H]1CC[C@@H]3[C@@]4(C)CC[C@H](O)C(C)(C)[C@@H]4CC[C@@]3(C)[C@]1(C)C[C@@H]2O = 6.53

Now let's try a different one.
Task: Reported TGI for O=C1CC(c2ccc(Cl)cc2)C2(C(=O)NC(=S)NC2=O)C(c2ccc(Cl)cc2)C1 (stereo not given) : what is it?
Output: 37.9

---

# Tested on: LOX IMVI melanoma
# procedureDetails: NCI tumour cell line growth inhibition, 48 h
parameter: TGI

Completed entries (count: 2):
Nc1nc(N)c2c(n1)NC(c1sc(Cl)nc1Cl)CC(c1ccccc1)=N2 (stereo unspecified) = 18.1 µM
CCN(C(=O)N1CCN(c2cc3c(cc2F)c(=O)c(C(=O)O)cn3C2CC2)CC1)c1nc(-c2ccccc2)cs1 = 9.09 µM

For the 6 molecules below, give their TGI values.
1. COc1ccc(-c2nc(-c3ccc(OC)cc3)n(-c3ccccc3)n2)cc1
2. CC(C)N(C(=O)C12C3C4C1C1C2C3C41C(=O)C(C)(C)C)C(C)C (stereo unspecified)
3. CCO/C(O)=C(/C(=N)N1CCOCC1)C(=O)Nc1cccc(C(F)(F)F)c1
4. c1ccc(-c2cnc(SC(c3ccccc3)c3ccccc3)[nH]2)cc1
5. C=C1C(=O)OC2C1CCC(=C)C1CC(O)C(=C)C12 (stereo unspecified)
6. C#CCN(N=O)C(=O)NC(CCCCNC(=O)OCc1ccccc1)C(=O)OCc1ccccc1 (stereo unspecified)

Output:
1: > 100 µM; 2: > 100 µM; 3: > 100 µM; 4: 59 µM; 5: 20.9 µM; 6: 59.1 µM

For the 3 molecules below, give their TGI values.
1. O=C(Nc1ccc(OS(=O)(=O)c2ccc(F)cc2)cc1)C12CC3CC(CC(C3)C1)C2
2. CC1(C)OB(c2ccc(N(CCOS(C)(=O)=O)CCOS(C)(=O)=O)cc2)OC1(C)C
3. O=C([CH-]C(=O)c1ccccc1)c1ccccc1.[C-]#[O+].[C-]#[O+].[Ir]

Output:
1: > 100 µM; 2: > 53.3 µM; 3: > 100 µM

---

# Tested on: BT-549 breast
# procedureDetails: NCI tumour cell line growth inhibition, 48 h; in the data active = GI50 below about 0.43 µM; inactive = the rest
I would appreciate it if you answered using one of these outcomes: class 1 = active, class 0 = inactive

The examples below pair each entry with its known result.
Cc1nnc(C[C@@H]2C=C(c3ccc(Cl)cc3)c3ccccc3-n3c(C)nnc32)o1 = class 0
O=CC(OC(=O)c1ccccc1)C(OC(=O)c1ccccc1)C(COC(c1ccccc1)(c1ccccc1)c1ccccc1)OC(=O)c1ccccc1 (centres undefined) = class 0
COc1ccc(C(=O)/C=C/c2sc(Cl)nc2Cl)cc1 = class 1

Task: Check the results log: what was the call for Cc1cc(F)c(C(=O)Nc2cccc(-c3nncn3C(C)C)n2)cc1-n1cnc(C2CC2)c1 ?
Output: class 0

Task: Would you mind doing CNC(=O)c1cc(Oc2ccc3nc(NC(=O)Nc4ccc(CN5CCOCC5)c(C(F)(F)F)c4)sc3c2)ccn1 as well?
Output: class 0

Task: Would you mind doing C[C@@H](Nc1nc(N[C@H](C)C(F)(F)F)nc(-c2cccc(Cl)n2)n1)C(F)(F)F as well?
Output: class 0

Task: Would you mind doing O=C(NC1CCN(Cc2ccccc2)CC1)c1cc(-c2cccnc2)nc2ccc(Cl)cc12 as well?
Output: class 0

Task: Would you mind doing Clc1ccc(-c2cc(-c3ccccc3)nc(N3CCN(CCCNc4ccnc5cc(Cl)ccc45)CC3)n2)cc1 as well?
Output: class 0

Task: Would you mind doing Cc1ccc2c(c1)[n+](=O)c(C(=O)c1cccs1)c(C(F)(F)F)n2[O-] as well?
Output: class 0

---

# Tested on: UACC-62 melanoma
# procedureDetails: NCI tumour cell line growth inhibition, 48 h; in the data active = GI50 below about 0.43 µM; inactive = the rest
I would appreciate it if you answered using one of these outcomes: 1.0 (active), 0.0 (inactive)

The examples below pair each entry with its known result.
C[C@@H](O)[C@@H](C)Oc1nc(Nc2ccc(S(=N)(=O)C3CC3)cc2)ncc1C(F)(F)F (some centres not stated) = 1.0
Cc1cccc2c(C3=C(c4cn(C)c5ccccc45)C(=O)NC3=O)cn(C)c12 = 0.0
C[C@@H]1CC[C@H]2[C@@H](C)C(O)O[C@@H]3O[C@]4(C)CC[C@@H]1[C@]32OO4 (some centres not stated) = 0.0
CN(C)c1ccc(C(=S)c2ccc(N(C)C)cc2)cc1 = 0.0
COc1ccc(C(=O)/C=C/c2sc(Cl)nc2Cl)cc1 = 0.0
O=C([CH-]C(=O)c1ccccc1)c1ccccc1.[C-]#[O+].[C-]#[O+].[Ir] = 0.0

Task: Check the results log: what was the call for Cc1nc2ccccn2c1NC(=O)NN1C(=O)CSC1c1ccc(Cl)cc1 (configuration not stated) ?
Output: 0.0

Task: Would you mind doing O=C(COc1ccc(/C=C2\Oc3ccc4ccccc4c3C2=O)cc1)c1ccc([N+](=O)[O-])cc1 as well?
Output: 0.0

Task: Would you mind doing COc1ccccc1-n1cnc(N)c1C(=O)c1cc(OC)c(OC)c(OC)c1 as well?
Output: 0.0

Task: Would you mind doing O=C(Nc1ccc(OS(=O)(=O)c2ccc(F)cc2)cc1)C12CC3CC(CC(C3)C1)C2 as well?
Output: 0.0

Task: Would you mind doing CN(C)c1ccc(/C=C/C(=O)c2ccc(Nc3nc(Nc4ccc(F)cc4)nc(Nc4ccc(F)cc4)n3)cc2)cc1 as well?
Output: 0.0

Task: Would you mind doing Nc1nc(=O)n(C2CC(O)C(CO)O2)cc1F (configuration not stated) as well?
Output: 1.0

---

I'd be grateful if you could share measured TGI for these entries.
# Tested on: U251 CNS
# procedureDetails: NCI tumour cell line growth inhibition, 48 h

Completed entries (count: 8):
CN1CCN(CCCOc2cccc3nc(Nc4cc(Cl)cc(Cl)c4)ccc23)CC1 = 3.1 µM
CC1(C)OB(c2ccc(N(CCOS(C)(=O)=O)CCOS(C)(=O)=O)cc2)OC1(C)C = 34.7 µM
COC(=O)C(C(=O)C(=O)Nc1ccc(C)cc1)c1nc2ccc([N+](=O)[O-])cc2[nH]c1=O (stereo not given) = > 100 µM
O=C(Nc1ccccc1)c1cc2ccccc2c(N=Nc2cccc([N+](=O)[O-])c2)c1O = > 100 µM
O=[N+]([O-])c1cc(C2(N3CCCCC3)CCCCC2)sc1Br = 19.1 µM
CC(Oc1cc2oc(=O)cc(-c3ccccc3)c2cc1Cl)C(=O)O (stereo not given) = > 100 µM
Clc1ccc(Nc2ncco2)cc1Cl = > 10 µM
O=[N+]([O-])c1cc(Br)cc2cc(Cl)cnc12 = > 100 µM

For the 2 compounds below, give their TGI values.
1. CN(C)c1ccc(C(=S)c2ccc(N(C)C)cc2)cc1
2. CC(=O)NNc1nc(C)c(C(=O)NNC(=O)C(=O)Nc2ccc(Cl)c([N+](=O)[O-])c2)s1

Output:
["> 100 µM", "> 100 µM"]
